Data origin: the supplement of paper PMC12042874

# test.method.notes: amyloid nucleation score (Sup35N fusion, yeast selection) (log enrichment); library NNK2; higher = more nucleation; inactive = no reads after selection;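 further: zero at mode of non-aggregating sequences after 7 days selection at 30°C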
observable: amyloid nucleation score

# substance, value.observed
data = [
    ("TKFMIYRDYSLVKSHH", "inactive"),
    ("SSYVVNSERVSDVARHSTLQ", 1.91),
    ("GYHDRLSPSQTLPPTRNVLC", 0.312),
    ("LVSNHASYFIQI", 7.47),
    ("DVLALFYSYCALN", 0.049),
    ("VNQLRHYDLGINAHGQCRRL", 0.54),
    ("IMVVEQYLYYYSKVCTFFSV", "inactive"),
    ("NYLSLVGRFNMGWGESNGRR", 5.89),
    ("NINNFLSISIFNGYASHVNC", "inactive"),
    ("RGYVRLSHTGTTRHHP", "inactive"),
    ("SNSKVSVLIFFSAHKGECAA", "inactive"),
    ("MGDSTIEVTLPVG", 0.987),
    ("FINSHFHYEECPIMGKQSVL", 1.63),
    ("WIHMSFGRLNRYMVRMRGRM", -0.71),
    ("LTVRDLVPPPAMANRFLTVI", -0.016),
    ("GCIAIIDWMNLTLFTLLLSS", -0.375),
    ("TTVSYISERFTYLGSL", 3.84),
    ("TKYDLHPMIVSFECDRHLMW", 0.411),
    ("LLSMYRFFNTLKSC", -0.087),
    ("MERIPVVSDMGRLGFSACRL", 0.821),
    ("TLLVKSMGGSLET", 4.11),
    ("HMLAPCFNM", -1.58),
    ("WFFYWMYRGYSINMIFEMLD", -2.15),
    ("GTGLNKHNNSC", 0.36),
    ("RRTVQWVWAVYIV", -0.803),
    ("HKGYCVRIIT", -0.335),
    ("AYDIHTIREMFRSSSRLYGW", 5.85),
    ("TPLDIICEIMNFIYNTVFRL", -0.501),
    ("FMYWLGCYIRLLCDNLKQRG", -0.979),
    ("PGSRTWFGTMLAPDTCLHEM", 1.7),
    ("YVCLFEFVMVCCDFTLFCKV", 0.585),
    ("IYFYCGRCVSVFVHSFGMGL", 4.21),
    ("SCLTNGY", -0.154),
    ("FKASWVVRASNKDTHIHRGG", -0.144),
    ("VNCYTIWVGNSSRSVHSINA", 5.27),
    ("NQYMFFGSHRD", 0.424),
    ("IPFLLTHDEHAAGCPAMKSY", 0.223),
    ("LVLLVPGKLMCF", 4.12),
    ("SFRTAHSAPEVGMLEVYMNL", 0.334),
    ("FLGLTDWRVDYCSEWQGFAQ", -0.199),
    ("AASRWTWC", 1.5),
    ("ILGHLYLKIKKLSFVM", -0.658),
    ("ICSPVQSAPSRAEKND", -0.297),
    ("GVPCRWTVPNANGSSVWSLR", 0.776),
    ("LCLEAWERRCI", -0.588),
    ("PLWVEGFMCSNGMCILGRSG", 1.77),
    ("VANRIMLGSLGMGFVVGSSM", -0.033),
]
